// reported growth per item
test system: SR leukemia; assay: NCI-60 one-dose screen, 48 h (100 = growth as untreated, 0 = no growth, -100 = all killed); settings: 10 µM unless noted
Compounds without any hit were thinned out: in the full panel of roughly 83,000, 20% have a hit.
Entry rule: numbers only, all in %.

Nc1c(C(=O)c2ccccc2)nnc2ncnn12 | 94.6

Exam item: Request the reported growth associated with CCOC(=O)c1nnn(C(Cc2ccccc2Cl)C(=O)OCC)c1C (configuration not stated)
Marked response: 93.7

Exam item: Request the reported growth associated with CCc1nc2ccccc2[nH]1
Marked response: 100

* * *

// reported growth per item
system: SW-620 colon; assay: NCI-60 one-dose screen, 48 h (100 = growth as untreated, 0 = no growth, -100 = all killed); conditions: 10 µM unless noted
The panel holds about 83,000 compounds, 20% with a hit somewhere; the sample as a whole holds those more often.
Entry rule: numbers only, all in %.

Exam item: Request the reported growth associated with O=[N+]([O-])c1cccc(/C=C/c2ccccn2)c1
Marked response: 47.7

Exam item: Request the reported growth associated with Clc1ccc(-c2cn(-c3ccccc3)c(-c3ccccc3)n2)cc1
Marked response: 66.7

Exam item: Request the reported growth associated with CCN(CC)CCNc1ccc(C)c2sc3cc(C)ccc3c(=O)c12
Marked response: 43.6

Exam item: Request the reported growth associated with CCN(CC)CC(O)CNc1c2ccc(Cl)cc2nc2ccc(OC)cc12 (stereo unspecified)
Marked response: -37

Exam item: Request the reported growth associated with CN(C)c1cnccn1
Marked response: 88.7

Exam item: Request the reported growth associated with Fc1ccc(Nc2nc(Nc3ccc(-c4nc5ccccc5[nH]4)cc3)c3cn[nH]c3n2)cc1
Marked response: 10.9

Exam item: Request the reported growth associated with Nc1c(C(=O)c2ccc(Cl)s2)sc2nc3c(cc12)CCCC3
Marked response: 106
